Biological target: Aspartate--tRNA(Asp/Asn) ligase (Mycobacterium tuberculosis (strain ATCC 25618 / H37Rv)); note: in the data most compounds retested in dose-response had high values
Experiment: Assay for Asp RNA synthetase-1 from Mycobacterium tuberculosis
Format: functional
Design: scale not given: direction of the effect not stated beside the values
Conditions: 30 µM

{"compound": "Cc1nc(C2CCCN2C(=O)CNS(C)(=O)=O)no1 (centres undefined)", "Percent Effect (%)": 0.586}
{"compound": "CCCc1c(C(=O)NC2CCCC2)nnn1-c1ccc(OC)cc1", "Percent Effect (%)": -1.57}
{"compound": "Cc1nc(CN2CCOC(Cn3cncn3)C2)nc2ccccc12 (centres undefined)", "Percent Effect (%)": -2.91}
{"compound": "CCC(=O)Nc1nnc(CCOc2cccc(OC)c2)s1", "Percent Effect (%)": -4.27}
{"compound": "CCOc1ccnc(N2CCN(C(=O)c3cccnc3O)CC2)n1", "Percent Effect (%)": -5.14}
{"compound": "CCn1cc(CN2CCCN(C(=O)CCCn3cncn3)CC2)cn1", "Percent Effect (%)": -4.34}
{"compound": "CC(NC(=O)NCCCN(C)S(C)(=O)=O)c1ccncc1 (centres undefined)", "Percent Effect (%)": -2.98}
{"compound": "Cc1noc(C2CCN(C(=O)c3c(C)noc3C)CC2)n1", "Percent Effect (%)": 0.55}
{"compound": "Cc1noc([C@H]2C[C@@H]3CCN(C(=O)N(C)C)C[C@H]3O2)n1", "Percent Effect (%)": 3.32}
{"compound": "CC(C(=O)NCCCn1ccnc1)n1cc(Br)cn1 (centres undefined)", "Percent Effect (%)": 3.33}
{"compound": "Cc1ccc(NC(=O)Nc2cnc(N3CCN(C)CC3)nc2)c(Cl)c1", "Percent Effect (%)": -3.19}
{"compound": "Cc1cnn(CC2CN(CCc3ccncc3)CCO2)c1 (centres undefined)", "Percent Effect (%)": 8.62}
{"compound": "Cc1csc([C@@H]2C[C@@H]3CCN(C(=O)c4ccnnc4)C[C@H]3O2)n1", "Percent Effect (%)": -2.11}
{"compound": "CC(C)CN1C[C@H]2C[C@H](C(=O)Nc3cccnc3)[C@@H](C1)O2", "Percent Effect (%)": -0.0153}
{"compound": "Cc1ccc2c(n1)N(CCn1cccn1)CCN(C(=O)NC1CC1)C2", "Percent Effect (%)": 0.917}
{"compound": "CCN1CCN(c2ccc(CNC(=O)c3ccc(Cl)o3)cn2)CC1", "Percent Effect (%)": -3.07}
{"compound": "Cc1nc(COC[C@@H]2CCC[C@@]23CNCCO3)cs1", "Percent Effect (%)": 19.4}
{"compound": "O=C(c1ccncn1)N1CCO[C@H]2[C@@H](OCc3cccnc3)CC[C@@H]21", "Percent Effect (%)": 5.42}
{"compound": "Cc1cnc(CN(C)C2CCN(Cc3nc4ccccc4n3C)C2)o1 (centres undefined)", "Percent Effect (%)": -5.16}
{"compound": "COCC(=O)N1CCN(Cc2coc(-c3cccc(F)c3)n2)CC1", "Percent Effect (%)": -1.18}
{"compound": "CC(Oc1ccccc1C(F)(F)F)C(=O)NCCC(=O)N(C)C (centres undefined)", "Percent Effect (%)": -1.14}
{"compound": "CCn1nc(CC(C)C)cc1C(=O)N1CC[C@@H](O)C1", "Percent Effect (%)": -5.25}
{"compound": "CCC(CC)C(O)CNC(=O)Nc1cc(C)nn1C (centres undefined)", "Percent Effect (%)": -1.77}
{"compound": "Cc1nnc(C(C)N2CCN(Cc3ccc(C#N)cc3)CC2)o1 (centres undefined)", "Percent Effect (%)": -2.07}

---

Percent Effect values for the compounds below.
Target: Shiga toxin 2 (Escherichia coli O157:H7) (UniProt P09385+P09386)
Test: E. coli 0.157:H7 Shiga Toxin SOP - stx2 screening assay
Format: functional
Design: scale not given: direction of the effect not stated beside the values
Settings: 30 µM
attribute-measured: Percent Effect (%)

{"compound": "COC(CNC(=O)N1CCC(n2cncn2)CC1)c1ccccc1 (stereo unspecified)", "number": 7.26}
{"compound": "Cc1ccc(C)c(OC2CCN(C(=O)c3ccc(C)[nH]c3=O)CC2)c1", "number": 16}
{"compound": "CC(C)C(NC(=O)NCCNc1ccccn1)c1cccs1 (stereo unspecified)", "number": 3.04}
{"compound": "Cc1cc(CN2Cc3ccccc3CC2c2nnc(C)o2)on1 (stereo unspecified)", "number": 8.24}
{"compound": "Cc1nnc(CCNC2CCN(c3ncnc4c(C)csc34)CC2)s1", "number": -65.7}
{"compound": "O=C(c1ccncc1)N1CCC(O)(Cn2ccc3ccncc32)CC1", "number": -14.9}
{"compound": "CC1CCN(S(=O)(=O)NCc2ccccc2Cn2cncn2)CC1", "number": 4.16}
{"compound": "Cc1ccc(CN2CCCC3(COCCN(Cc4c[nH]nn4)C3)C2)o1 (stereo unspecified)", "number": -4.03}
{"compound": "Fc1ccc(CN2CC[C@H]3O[C@@H](COCC4CCOCC4)CC[C@H]32)cc1", "number": -14.5}
{"compound": "COCCNC(=O)NCCc1ccn(-c2ccccc2)n1", "number": 3.32}
{"compound": "Cc1cnn(CC2CN(CC(=O)NCCc3cccs3)CCO2)c1 (stereo unspecified)", "number": 6.55}
{"compound": "CCS(=O)(=O)N1C[C@H]2CCC[C@@]2(COc2ccccn2)C1", "number": 2.64}
{"compound": "CNC(=O)[C@@]12CCO[C@@H]1CCN(Cc1scnc1C)C2", "number": -2.91}
{"compound": "OCc1ccc(Cl)c(NCc2cccnc2)c1", "number": -19.3}
{"compound": "Cc1ccc(C)c(C(NC(=O)C2CC2)c2cccnc2)c1 (stereo unspecified)", "number": -13.4}
{"compound": "Cc1cncc(C2CCCN(C(=O)c3ccc(C)[nH]c3=O)C2)n1 (stereo unspecified)", "number": -13}

---

Biological target: Shiga toxin 2 (Escherichia coli O157:H7) (UniProt P09385+P09386)
Experiment: E. coli 0.157:H7 Shiga Toxin SOP - stx2 screening assay
Assay type: functional
Design: scale not given: direction of the effect not stated beside the values
Settings: 30 µM
Percent Effect values by entry

{"molecule": "Cc1cnn(CC2CCCN2C(=O)c2cc3ccccc3[nH]2)c1 (stereo unspecified)", "Percent Effect / %": 14.6}
{"molecule": "O=C(CO)N1CCc2onc(Cn3cccn3)c2C1", "Percent Effect / %": 7.04}
{"molecule": "Cn1ccc(CN2CCC(CO)CC2)cc1=O", "Percent Effect / %": -5.61}
{"molecule": "COc1ccc(CNCC2CCN(CC(C)O)CC2)c2ccccc12 (stereo unspecified)", "Percent Effect / %": -33.8}
{"molecule": "CC(C(=O)Nc1ncccn1)N1CCCN(c2nccs2)CC1 (stereo unspecified)", "Percent Effect / %": -54.2}
{"molecule": "Cn1cc(C[C@H]2[C@H](O)CCN2CC2CC2)cn1", "Percent Effect / %": 2.72}
{"molecule": "CC(=O)Nc1nc(C(=O)N2CCCC(n3nc(C)cc3C)C2)cs1 (stereo unspecified)", "Percent Effect / %": 10.8}
{"molecule": "CS(=O)(=O)N1CC[C@H]2[C@H](C[C@@H](Cn3cncn3)N2CC2CC2)C1", "Percent Effect / %": -8.81}
{"molecule": "Cc1cc(N2CCC(NC(=O)C3CC3)CC2)nc(-c2ccncc2)n1", "Percent Effect / %": -21.4}
{"molecule": "Cn1ccnc1CN1CCN(Cc2noc(-c3ccccc3)n2)CC1", "Percent Effect / %": -6.06}
{"molecule": "O=C1[C@H]2CN(Cc3nccs3)C[C@H]2CN1c1ccsc1", "Percent Effect / %": 1.38}
{"molecule": "CN(C)C(=O)[C@H]1C[C@@H]2CCN(C3CCOCC3)C[C@H]2O1", "Percent Effect / %": -13.4}
{"molecule": "CCCc1cc(C(=O)N(C)Cc2cnc3ccccc3n2)n(C)n1", "Percent Effect / %": -6.99}
{"molecule": "CNc1nc(CNC(=O)Nc2cccc(F)c2)cs1", "Percent Effect / %": -9.25}
{"molecule": "O=C(COc1coc(CN2CCCCCC2)cc1=O)c1ccccc1", "Percent Effect / %": -112}
{"molecule": "Cn1ccnc1CN1CCN(CCOc2ccccc2C#N)CC1", "Percent Effect / %": 16.8}
{"molecule": "Cc1cc(C)nc(NC(=O)C(C)Oc2ccc3c(c2)OCO3)n1 (stereo unspecified)", "Percent Effect / %": -50}
{"molecule": "COc1ccc(C2=CCN(C(=O)CN(C)CC(C)C#N)CC2)cc1 (stereo unspecified)", "Percent Effect / %": -65.5}
{"molecule": "CC(C)c1n[nH]c(C2CN(C(=O)CCn3ccccc3=O)CCO2)n1 (stereo unspecified)", "Percent Effect / %": 10.2}
{"molecule": "O=C(c1cc(F)ccc1F)C1CCN(C(=O)c2ccc(=O)[nH]n2)CC1", "Percent Effect / %": 28.6}
{"molecule": "Cc1cc(C)cc(OCC(=O)NC2CCN(S(C)(=O)=O)CC2)c1", "Percent Effect / %": -16.4}
{"molecule": "O=C1NCC[C@]12CN(Cc1ccoc1)C[C@H]2c1ccccc1", "Percent Effect / %": -14.1}
{"molecule": "CCc1nc(C2CCCN2CC(=O)Nc2nncs2)no1 (stereo unspecified)", "Percent Effect / %": 2.9}
{"molecule": "Cc1nccnc1N1CC[C@@H](NC(=O)c2cnccn2)[C@H](O)C1", "Percent Effect / %": -24.4}
{"molecule": "COc1ccc(C)cc1NC(=O)Nc1cnc(N2CCN(C)CC2)nc1", "Percent Effect / %": -18.8}
{"molecule": "COCC(NC(=O)c1ccc[nH]1)c1cccc(C(F)(F)F)c1 (stereo unspecified)", "Percent Effect / %": -17.9}
{"molecule": "Cn1ncc2c(NCCOc3ccc(F)cc3)nc(C3CCCC3)nc21", "Percent Effect / %": -46.7}
{"molecule": "COC(=O)C1CCN(C(=O)c2ccc(C)c(NS(C)(=O)=O)c2)CC1", "Percent Effect / %": -2.45}
{"molecule": "N#Cc1ccccc1C(=O)N1CCC2(CC(=O)NC2=O)C1 (stereo unspecified)", "Percent Effect / %": -0.393}
{"molecule": "Cc1cccc(CN2CCC3(CCN(c4ccccn4)C3)C2=O)c1 (stereo unspecified)", "Percent Effect / %": -2.5}
{"molecule": "COCc1nc(C(=O)N2CCCCC2Cn2cc(C)cn2)cs1 (stereo unspecified)", "Percent Effect / %": 5.33}

Recorded values, source ChEMBL document CHEMBL3988442.
